tgt: Recombinant Human FGFR2 alpha (IIIc) Fc Chimera Protein (Homo sapiens, UniProt P21802)
Construct: Fc (chimera); purchased R&D systems 712-FR-050
Sequence (P21802 with tags, fused parts or gaps limits assumed): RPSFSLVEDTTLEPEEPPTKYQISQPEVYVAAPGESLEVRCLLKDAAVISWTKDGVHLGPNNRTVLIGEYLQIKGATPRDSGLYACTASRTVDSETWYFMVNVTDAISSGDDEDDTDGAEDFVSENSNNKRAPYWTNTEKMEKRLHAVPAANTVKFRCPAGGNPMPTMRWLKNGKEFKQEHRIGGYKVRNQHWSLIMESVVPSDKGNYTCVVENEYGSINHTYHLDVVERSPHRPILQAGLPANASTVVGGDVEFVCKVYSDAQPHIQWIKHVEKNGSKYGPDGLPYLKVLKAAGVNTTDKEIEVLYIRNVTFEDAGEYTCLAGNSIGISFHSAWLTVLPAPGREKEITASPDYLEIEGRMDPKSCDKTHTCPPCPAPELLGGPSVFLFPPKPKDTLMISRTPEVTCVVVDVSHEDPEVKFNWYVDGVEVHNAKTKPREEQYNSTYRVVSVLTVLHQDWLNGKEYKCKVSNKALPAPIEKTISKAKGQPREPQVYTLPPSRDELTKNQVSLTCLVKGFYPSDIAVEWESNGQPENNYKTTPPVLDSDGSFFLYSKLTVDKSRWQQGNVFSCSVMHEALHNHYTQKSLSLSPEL
test-name: ELISA binding affinity of enzymatically synthesized peptide to FGFR
study-conditions: ELISA luminescence signal at 10 nmol/L peptide, SEQ ID NO: 47 at 10 nmol/L standardized to 1; enzyme synthesis product
Bridge positions count the residues as written; N and C are the ends. Ends that are not written are not given here. COCH2 = acetyl group that carries the bridge
metric: Evaluation result of binding affinity to FGFR

Recorded results for 5 substances are shown here.
1) 239 (YCEENYLDPIQYQYFIYFK(COCH2)Y; thioether 2-19 (inferred)) [compound 239] | A (0.7 or more)
2) 117 (LCRNYINPQQWRYFALYK(COCH2)N; thioether 2-18 (inferred)) [compound 117] | A (0.7 or more)
3) 397 (YCEENYLDPEQHQYFIYFK(COCH2)H; thioether 2-19 (inferred)) [compound 397] | A (0.7 or more)
4) 258 (YCEENYLDPEQYLYFIYFK(COCH2)Y; thioether 2-19 (inferred)) [compound 258] | A (0.7 or more)
5) 140 (VCEENYLDPEQYQYFIYFKY; Description of Artificial Sequence: Cyclic peptide) [compound 140] | A (0.7 or more)

For reference, reported Evaluation result of binding affinity to FGFR for 286 (YCEENYLDPEQYQYFTYFK(COCH2)Y; thioether 2-19) [compound 286] stands at A (0.7 or more)

For reference, reported Evaluation result of binding affinity to FGFR for 125 (YCRDNYFYLEQWQYLYLYK(COCH2)H; thioether 2-19 (inferred)) [compound 125] stands at A (0.7 or more)

For reference, reported Evaluation result of binding affinity to FGFR for 320 (YCEENYLDPEQYQYFIYFK(COCH2)R; thioether 2-19 (inferred)) [compound 320] stands at A (0.7 or more)

---

tgt: Recombinant Human FGFR2 alpha (IIIc) Fc Chimera Protein (Homo sapiens)
Construct: Fc (chimera); purchased R&D systems 712-FR-050
test-name: ELISA binding affinity of enzymatically synthesized peptide to FGFR
study-conditions: ELISA luminescence signal at 10 nmol/L peptide, SEQ ID NO: 47 at 10 nmol/L standardized to 1; enzyme synthesis product
Bridge positions count the residues as written; N and C are the ends. Ends that are not written are not given here. COCH2 = acetyl group that carries the bridge
metric: Evaluation result of binding affinity to FGFR

1) 280 (YCEENYLDPEQYQYFFYFK(COCH2)Y; thioether 2-19) [compound 280] | A (0.7 or more)
2) 242 (YCEENYLDPYQYQYFIYFK(COCH2)Y; thioether 2-19 (inferred)) [compound 242] | A (0.7 or more)
